System: KM12 colon
Experiment: NCI tumour cell line growth inhibition, 48 h

smiles.string | TGI
CCN(Cc1c(F)cccc1OC)c1ccc(CO)c(Cl)c1 | 49.8 µM
O=c1c2c(no[n+]2[O-])c2ccccc2n1-c1ccccc1 | 22 µM
Cc1ccsc1/C=N/Nc1cnccn1 | > 100 µM
CCC(C)(C)n1c(C)nc2c1C(=O)c1ccccc1C2=O | > 100 µM
CN1Nc2ccccc2CC1=O | > 100 µM
O=C(c1ccccc1)c1ccc2c(c1)NC(=O)c1ccccc1SSc1ccccc1C(=O)N2 | > 100 µM

----------
Entries annotated with measured TGI
Test system: SF-539 CNS
Test: NCI tumour cell line growth inhibition, 48 h

molecule | TGI
COc1cc(C[P+](c2ccccc2)(c2ccccc2)c2ccccc2)cc(OC)c1OC | > 100 µM
CC(C)(C)N=C(N)NC#N | > 100 µM
C=C(CN(C)C)C(=O)c1ccc(C(=O)C(=C)CN(C)C)cc1 | > 100 µM
COc1cc(C=O)ccc1O | > 100 µM
O=C1CSC2(CC(/C=C/c3cccs3)=NN2c2cccc(S(=O)(=O)O)c2)N1c1nc2ccccc2s1 (centres undefined) | > 100 µM
CSC[C@H](NC(=O)COc1cccc2cnccc12)C(=O)NC(Cc1ccccc1)C(O)C(=O)N1CSC[C@H]1C(=O)NC(C)(C)C (some centres undefined) | 31.4 µM
c1ccc2c(c1)CCc1c(-c3ccncc3)n[nH]c1-2 | > 100 µM
NC(=O)c1cc(I)ccc1NC(=O)/C=C/c1ccccc1 | 1.53 µM
C=CCn1c(=O)ccn(/C(=C/C(=O)OCC)C(=O)OCC)c1=O | 49.5 µM
O/N=C1\CCCCC1C(NO)c1ccccc1 (centres undefined) | > 100 µM
CCc1c(O)c(O)c(C(C)=O)c2c(O)c(-c3c(C)cc4c(CC)c(O)c(O)c(C(C)=O)c4c3O)c(C)cc12 | 22.4 µM
Nc1c(C(=O)Nc2ccccn2)sc2nc3c(cc12)C(=O)CCC3 | 5.65 µM
O=S(=O)(OI(OI(OS(=O)(=O)C(F)(F)F)c1ccccc1)c1ccccc1)C(F)(F)F | > 100 µM
CC(=O)N/C(=C\c1ccccc1/C=C(\NC(C)=O)c1nc2cc(C)c(C)cc2[nH]1)c1nc2cc(C)c(C)cc2[nH]1 | 44.3 µM
CCc1n[nH]c(=O)n1-c1ccc2ccccc2c1 | > 100 µM
Cc1ccc(/C=C2/N=C(N/N=C\C(O)C(O)C(O)C(O)CO)NC2=O)cc1 (centres undefined) | > 100 µM
Cc1cc(C)nc(NS(=O)(=O)c2ccc(Nc3c4ccccc4nc4c(C(=O)N5CCN(CCO)CC5)cccc34)cc2)n1 | > 100 µM
C=C(C)C(C1C=C(CCC(C=O)=C(C)C)C(=O)O1)C1(OC)C=C(C)C(=O)O1 (centres undefined) | > 100 µM
COc1cc(/C=C2\CCCCC3=C2N=C2SC(C)=CN2C3c2cc(OC)c(OC)c(OC)c2)cc(OC)c1OC (centres undefined) | > 100 µM
CN1Cc2c(nc(-c3ccccc3)c[n+]2[O-])N(C)C1 | > 100 µM
CCOC(=O)Nc1c(C)nc2ccccn12 | > 100 µM
COC(=O)/C=C/c1cc(OC(C)=O)c2c(c1)C(C(=O)OC)C(c1ccc(OC(C)=O)c(OC(C)=O)c1)O2 (centres undefined) | 2.41 µM
Cc1cc(C)nc(NC(=S)Nc2ccc([N+](=O)[O-])cc2)c1 | > 100 µM
CCN(C(=O)N[C@@H](C)C(=O)N[C@@H](Cc1ccccc1)C(=O)OC)c1ccccc1 | > 100 µM
